These data points were gathered from a melting point compilation (Tetko et al.; mined from patent text by program, amines drawn as free bases though some values may be those of a salt).

# melting point per entry

{"COMPOUND": "Cc1cc(N(C)C)ccc1C1(N(c2ccc(N(C)C)cc2)c2ccc(N(C)C)cc2)OC(=O)c2ccccc21 (centres undefined)", "melting point": "97 to 113 °C"}
{"COMPOUND": "CCCCOc1nc(N)c2[nH]c(=O)n(CCS(=O)(=O)c3cccc(CC(=O)OC)c3)c2n1", "melting point": "246 to 247 °C"}
{"COMPOUND": "COC(=O)C1=C(N)CC2CC[C@H]1N2C", "melting point": "95 to 98 °C"}
{"COMPOUND": "CC(C)COC(=O)CCC1NCC(=O)N1 (centres undefined)", "melting point": "50 to 52 °C"}
{"COMPOUND": "CCCCCc1c(C(C)C)nc(C(C)C)c(CO)c1-c1cccc(F)c1", "melting point": "117 to 118 °C"}
{"COMPOUND": "C[C@@H](Nc1ncnc2[nH]c(-c3ccc(CCl)cc3)cc12)c1ccccc1", "melting point": "> 320 °C"}
{"COMPOUND": "Fc1ccc(-c2ncn(C3CCNCC3)c2-c2ccnc(Oc3ccccc3)n2)cc1", "melting point": "182 to 183 °C"}
{"COMPOUND": "CCn1c(=O)[nH]c2cc3c(N4CCN(C(=O)Nc5ccc(Oc6ccccc6)cc5)CC4)ncnc3cc21", "melting point": "248 to 251 °C"}
{"COMPOUND": "CC(=O)OC(C(Oc1ccccc1)n1ccnc1)C(C)(C)C (centres undefined)", "melting point": "114 to 121 °C"}

* * *

# melting point per entry

{"COMPOUND": "O=C(CCCCCCOc1ccc(OCc2ccccc2)cc1)C(F)(F)F", "melting point": "82 to 83 °C"}
{"COMPOUND": "CC(=O)Oc1c(C)c(C)c2c(nc(COc3ccc(CC4SC(=O)NC4=O)cc3)n2C)c1C (stereo not given)", "melting point": "250 to 253 °C"}
{"COMPOUND": "O=C(CCC(=O)N1CCC[C@H]1C(=O)O)c1ccc(Cl)s1", "melting point": "131 to 133 °C"}
{"COMPOUND": "COC(=O)Nc1nc(C)c(C(=O)c2sc(NC(=O)OC)nc2C)s1", "melting point": "188 to 189 °C"}
{"COMPOUND": "Nc1ccn(C2CCCO2)c(=O)n1 (stereo not given)", "melting point": "193 to 195 °C"}

* * *

# melting point per entry
MEASUREMENT KIND: melting point

{"COMPOUND": "NC(=O)c1cccc(-c2ccc(Cl)c3cc(Cc4ccc(F)c(F)c4)sc23)c1", "MEASURED": "185 to 186 °C"}
{"COMPOUND": "CC(C)(C)C1CCC(C(=O)Nc2ccncc2)CC1 (stereo unspecified)", "MEASURED": "150 to 151 °C"}
{"COMPOUND": "O=C1NCCc2ccc(O)cc21", "MEASURED": "201 to 203 °C"}
{"COMPOUND": "COc1cc(C2C3=C(COC3=S)N(Cc3ccccc3)c3cc4c(cc32)OCO4)cc(OC)c1OC (stereo unspecified)", "MEASURED": "130 °C"}
{"COMPOUND": "CCC(=O)N1C(=O)C(=O)c2cc(Cl)ccc21", "MEASURED": "160 to 162 °C"}
{"COMPOUND": "O=C1Nc2ccc(C(F)(F)F)cc2C1c1ncnc2c1cnn2C1CCCCC1 (stereo unspecified)", "MEASURED": "> 300 °C"}
{"COMPOUND": "NC(=O)CNC(=O)c1ccccc1I", "MEASURED": "183 to 185 °C"}
{"COMPOUND": "CN1c2ccccc2C(c2ccccc2F)=Nc2cccnc21", "MEASURED": "140 to 142 °C"}
{"COMPOUND": "COC(=O)Cc1ccc(C(C)=O)s1", "MEASURED": "43 to 44 °C"}
{"COMPOUND": "O=[N+]([O-])c1ccc(Oc2ccccc2Oc2ccc(Cl)cn2)nc1", "MEASURED": "82 to 84 °C"}
{"COMPOUND": "CC(C)Nc1c([N+](=O)[O-])cnn1-c1ncc(Cl)cc1Cl", "MEASURED": "123 °C"}

* * *

{"COMPOUND SMILES": "Cc1[nH]c2ccc([N+](=O)[O-])cc2c1Cn1ccnc1", "melting point": "240 to 242 °C"}
{"COMPOUND SMILES": "CCCOc1ccc(S(=O)(=O)N2CCN(C)CC2)cc1-c1nc2cc(Cl)c([N+](=O)[O-])cc2c(=O)[nH]1", "melting point": "225 to 228 °C"}
{"COMPOUND SMILES": "O=C(c1ccc(-c2ccccc2)nc1)N1Cc2cccn2Cc2ccccc21", "melting point": "171 to 174 °C"}
{"COMPOUND SMILES": "Cc1cc(N)nc(C)c1-c1ccccc1", "melting point": "105 to 112 °C"}
{"COMPOUND SMILES": "CON1C(=O)CC2(CCN(CNC(=O)c3ccccc3O)CC2)C1=O", "melting point": "96 to 99 °C"}

* * *

# melting point per entry

{"MOLECULE": "CCOC(Cc1c(N(C(C)=O)C(C)=O)nc(NC(C)=O)[nH]c1=O)OCC", "melting point": "128 to 130 °C"}
{"MOLECULE": "CC(=O)SCC(C(=O)NC(Cc1occ2ccccc12)C(=O)O)C(F)(F)F (stereo unspecified)", "melting point": "147 to 149 °C"}
{"MOLECULE": "Cc1ccc(N)c(C)c1CO", "melting point": "85 °C"}
{"MOLECULE": "CCCn1nc2c(N)nc3ccccc3c2c1CC", "melting point": "219 to 220 °C"}
{"MOLECULE": "Cc1c(C(=O)NC2CCCCC2)nc(-c2ccccc2Cl)n1-c1ccc([N+](=O)[O-])cc1", "melting point": "217 to 220 °C"}
{"MOLECULE": "Clc1ccc(-c2cc3nccc(C4CC4)n3n2)cc1", "melting point": "137 to 138 °C"}
{"MOLECULE": "O=C(CCN1CCN(c2ncc(F)cn2)CC1)Cc1cccs1", "melting point": "77 to 78 °C"}
{"MOLECULE": "COc1ccc(CS(=O)(=O)CC(=O)O)cc1O", "melting point": "164 to 165 °C"}
{"MOLECULE": "N#Cc1ccc(Oc2ccc(C3CCCN4CCS(=O)(=O)N=C34)cc2)cc1Cl (stereo unspecified)", "melting point": "219 to 220 °C"}
{"MOLECULE": "Cc1cc(Cc2c(F)cc(N)cc2F)n(C)c1C(=O)c1ccc(Cl)cc1", "melting point": "208 to 210 °C"}
{"MOLECULE": "O=C(COc1ccccc1)N[C@@H](Cc1ccc([N+](=O)[O-])cc1)C(=O)O", "melting point": "147 °C"}

* * *

{"COMPOUND": "COc1ccc(C(=O)N2CCc3cc(OCc4ccccc4)ccc3C2)cc1OC", "melting point": "126 to 127 °C"}
{"COMPOUND": "CC(O)c1cc2c(OCC(O)CN3CCC(c4ccc5ccccc5c4)CC3)cccc2o1 (stereo not given)", "melting point": "143 to 144 °C"}
{"COMPOUND": "Cc1nc(N2C[C@@H](C)N(Cc3ccc(F)cc3)C2=O)sc1C(=O)NCc1cc(F)cc(F)c1", "melting point": "159 to 160 °C"}
{"COMPOUND": "COc1ccc2c(c1)CN(C#N)CC2c1cc(OC)c(OC)c(OC)c1 (stereo not given)", "melting point": "113 to 116 °C"}
{"COMPOUND": "CC(C)(C)OC(=O)N[C@@H]1C[C@H](CO)[C@@H](OC(=O)c2ccccc2)[C@H]1OC(=O)c1ccccc1", "melting point": "78 to 79 °C"}
{"COMPOUND": "CSc1ccccc1C(=O)CBr", "melting point": "81 to 82 °C"}
{"COMPOUND": "O=[N+]([O-])c1cccc(S(=O)(=O)NC(CO)(CO)CO)c1", "melting point": "98 to 99 °C"}
{"COMPOUND": "CNS(=O)(=O)c1ccccc1Nc1nc(Nc2ccc3c(c2)CCCC(=O)N3)ncc1Cl", "melting point": "276 to 282 °C"}
{"COMPOUND": "O=C1NC(O)c2cccn2-c2sccc21 (stereo not given)", "melting point": "166 °C"}
{"COMPOUND": "O=C(O)C1CCc2ccc3[nH]ccc3c21 (stereo not given)", "melting point": "166 to 167 °C"}
{"COMPOUND": "CNc1c(F)cc2c(=O)c(C(=O)O)cn(-c3cc(N)c(F)cc3F)c2c1OC", "melting point": "225 to 227 °C"}
{"COMPOUND": "N#CC1c2ccc(Br)cc2CCC1c1ccc(F)cc1 (stereo not given)", "melting point": "146 °C"}
{"COMPOUND": "CCc1cccc(CC)c1NC(=O)CCSc1cc(C(C)(C)C)c(O)c(C(C)(C)C)c1", "melting point": "150 to 152 °C"}
{"COMPOUND": "CS(=O)(=O)c1cccc(Nc2cc(-c3ccc(C(F)(F)F)cc3)ncn2)c1", "melting point": "204 to 205 °C"}
{"COMPOUND": "CCOC(=O)Cc1ccnc(C(SC)=C(C#N)C#N)c1", "melting point": "148 to 152 °C"}
{"COMPOUND": "Nc1cccc(-c2ccc(CCN3C4CCC3CC(N)C4)cc2)n1 (stereo not given)", "melting point": "> 300 °C"}
{"COMPOUND": "CC(Nc1nc(Cl)nc2c1cnn2-c1ccccc1)C(O)c1ccccc1 (stereo not given)", "melting point": "164 to 165 °C"}
{"COMPOUND": "CS(=O)(=O)c1ccc(C2=C(c3ccc(F)cc3)CC3(CC3)C2)cc1", "melting point": "140 to 142 °C"}
{"COMPOUND": "N#Cc1cccc(CN2CCc3sc(Nc4ncc(F)cn4)nc3-c3cn[nH]c32)c1", "melting point": "282 to 284 °C"}
{"COMPOUND": "OCC1OC(n2cnc3c(NCCc4cn(Cc5ccc(Cl)cc5)c5ccccc45)ncnc32)C(O)C1O (stereo not given)", "melting point": "181 °C"}
{"COMPOUND": "Cc1c(F)c(F)c(F)c2c1c(=O)c(C(=O)O)cn2CCO", "melting point": "244 to 247 °C"}
{"COMPOUND": "CS(=O)(=O)c1cc(C(N)Nc2ccccc2C(=O)Nc2cccc(C(F)(F)F)c2)ccn1 (stereo not given)", "melting point": "214 °C"}
{"COMPOUND": "N#Cc1ccc2c(c1)NC(=O)C2c1ncnc2c1cnn2C1CCCC1 (stereo not given)", "melting point": "335 to 338 °C"}
{"COMPOUND": "COc1ccc(CC(=O)c2ccc(OC)c(F)c2)cc1", "melting point": "142 to 143 °C"}
{"COMPOUND": "O=c1[nH]c2ccc(C(F)(F)F)cc2c(-c2cc(Cl)ccc2O)c1Sc1ccc(O)cc1", "melting point": "180 to 190 °C"}
{"COMPOUND": "CCCC(CCC)NC(=O)c1ccc2oc(OCC)nc2c1", "melting point": "128 to 129 °C"}
{"COMPOUND": "Cc1ccc(-c2nc(C)cc(O)n2)cc1", "melting point": "206 to 207 °C"}
{"COMPOUND": "CSc1[nH]c2cccc3c2c1CC1C3C=C(C)CN1C (stereo not given)", "melting point": "148 to 150 °C"}
{"COMPOUND": "CCOC(=O)C(=O)Nc1cc(Br)c2ccccc2c1NC(=O)C(=O)OCC", "melting point": "164 °C"}
{"COMPOUND": "CCCc1[nH]c(C(=O)OCC)c(C)c1CCC", "melting point": "84 to 87 °C"}
{"COMPOUND": "CON=C(c1ccccc1OCc1ccc(C)cc1)n1ccnc1", "melting point": "70.5 to 72 °C"}
{"COMPOUND": "CCOC(=O)c1c(CN2CCOCC2)nc2ccc(Cl)cc2c1-c1ccccc1", "melting point": "161 to 163 °C"}
{"COMPOUND": "CS(=O)(=O)Nc1cc([N+](=O)[O-])ccc1Oc1ccccc1", "melting point": "112 to 114 °C"}
{"COMPOUND": "COc1ccc(-n2nc(C(F)F)cc2-c2ccc(S(C)(=O)=O)cc2)cc1F", "melting point": "185 to 186 °C"}
{"COMPOUND": "O=C1C2CCN(CC2)C1CC(c1ccccc1)c1ccccc1 (stereo not given)", "melting point": "107 °C"}
{"COMPOUND": "CCOc1cc2cc(CO)cc(-c3ccnc(Cl)c3)c2cc1OCC", "melting point": "135 to 137 °C"}
{"COMPOUND": "CC(C)=CC(=O)Nc1ccc(F)cc1CCN1CCN(c2nsc3ccccc23)CC1", "melting point": "175 °C"}
{"COMPOUND": "Cc1cc(-c2nc(C(F)(F)F)cn2-c2ccc(S(C)(=O)=O)c(F)c2)ccc1-c1cscn1", "melting point": "197 to 198 °C"}
{"COMPOUND": "CC(C(=O)NCc1cccs1)(c1ccccc1)c1ccccc1", "melting point": "90 to 91 °C"}
{"COMPOUND": "Nc1ccccc1C(O)C1CC1 (stereo not given)", "melting point": "76 to 79 °C"}
